- Tested on: RARb homodimer (NR concentration 270 nM)
- protocol: PBM binding z-score (relative to random genomic background probes); higher = stronger binding; sequences stand for … in GC…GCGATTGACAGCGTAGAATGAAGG
Use Satisfied when the recorded PBM binding z-score is no lower than 2; use Not satisfied when it is lower.

Does the reported PBM binding z-score for CGAACTAGGTCATTGACAGCACAGTGAATAGTAA fall at or above the 2 mark?
Satisfied

Does the reported PBM binding z-score for ATATTTAGGTTATCGGGTCATTCAGTTTGCGCAT fall at or above the 2 mark?
Satisfied

Does the reported PBM binding z-score for CCTACTGGGCCACGAAGGGTCATTGATTCAGTGA fall at or above the 2 mark?
Satisfied

Does the reported PBM binding z-score for CGTCCAAGGTCAGAGAGGTCGGTGAATGCCGAGT fall at or above the 2 mark?
Satisfied

Does the reported PBM binding z-score for TCTAGCAGGCCAGAGGGTGACTCAAGAGGTACGG fall at or above the 2 mark?
Not satisfied

Does the reported PBM binding z-score for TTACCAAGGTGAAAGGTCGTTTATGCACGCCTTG fall at or above the 2 mark?
Satisfied

The values you see were collected from the supplement of paper PMC6555819.
